The reported measurements were obtained from paper PMC11730611.

# assay.target: T1, extROQ (Roquin, murine/human) (Mus musculus, UniProt Q4VGL6 89-404)
# T1 sequence: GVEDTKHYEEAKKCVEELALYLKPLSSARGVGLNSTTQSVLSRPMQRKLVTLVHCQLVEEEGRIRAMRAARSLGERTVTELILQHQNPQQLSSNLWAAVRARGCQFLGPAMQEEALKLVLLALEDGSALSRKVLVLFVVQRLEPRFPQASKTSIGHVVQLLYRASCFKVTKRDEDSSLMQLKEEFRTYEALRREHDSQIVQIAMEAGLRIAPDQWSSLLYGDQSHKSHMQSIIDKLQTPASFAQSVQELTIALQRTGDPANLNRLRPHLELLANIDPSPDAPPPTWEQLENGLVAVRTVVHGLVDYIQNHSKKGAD
# assay.summary: EMSA
measure: pKd
Note: pKd values are expressed as the negative base-10 logarithm of concentration in M.

Answered examples (2):
{"binder": "GGCCAUCUGCACCGUUCUAGGUGCCGAACUGGCU (structured_RNA) [HS 3'bulge]", "pKd": 6.32}
{"binder": "GCCUGCCAGUCCACACCGUUCUAGGUGCUGGGCUGGCUCUGGGC (structured_RNA) [delta-bulge]", "pKd": 6.32}

input: // returns reported pKd for input GGCGAACAGUGCAGCGUUCUAGCUGCCCUUCGCU (structured_RNA) [HS low pur.]
output: 6.17

input: Field request: pKd | item: GCCUGUAAGUACCCUCUACACCGUUCUAGGUGCUAGGCUUACUCUGGGC (structured_RNA) [dstem2]
output: 6.01
